reported-endpoint: melting point

Reported melting point for CCCC(CCC)c1c2c(nn1C)N(c1c(C)cc(C)cc1C)CCCC2 was 96 to 98.1 °C

Reported melting point for COc1cccc(OC)c1-c1c2c(nn1C)N(c1c(C)cc(C)cc1C)CCC2 was 169.9 to 172.8 °C

Reported melting point for CCCC(O)(CCC)c1c2c(nn1C)N(c1ccc(Cl)cc1Cl)CCC2 was 121.4 to 122.6 °C

Reported melting point for Cc1cc(C)c(N2CCCc3c2nn(C)c3-c2ccccc2C(F)(F)F)c(C)c1 was 59 to 63 °C

Reported melting point for Cn1nc2c(c1C(=O)c1ccccn1)CCCN2c1ccc(Cl)cc1Cl was 142.1 to 149.2 °C

Reported melting point for Cn1nc2c(c1-c1cncnc1)CCCN2c1ccc(Cl)cc1Cl was 164.2 to 166.8 °C

Reported melting point for CCCC(O)(c1nccn1CC)c1c2c(nn1C)N(c1c(C)cc(C)cc1C)CCC2 (stereo not drawn) was 94.9 to 100.9 °C

Reported melting point for Cc1cc(C)c(N2CCCc3c2nn(C)c3C(C)O)c(C)c1 (stereo not drawn) was 178 to 179.6 °C

Reported melting point for CCC(CC)Nc1c2c(nn1C)N(c1c(C)cc(C)cc1C)CCC2 was 99.3 to 104.9 °C

====

Task for the reader: assign each of the following compounds its reported melting point.

Reported melting point for CNc1c2c(nn1C)N(c1c(C)cc(C)cc1C)CCC2 [Compound 5-49] was 143.3 to 144.9 °C

Reported melting point for CCCN(CC1CC1)C(=O)c1c2c(nn1C)N(c1c(C)cc(C)cc1Cl)CCC2 [Compound 7-1] was 120.6 to 122 °C

Reported melting point for Cc1cc(C)c(N2CCCc3c2nn(C)c3C#N)c(C)c1 [Compound 2-22] was 128.5 to 136.6 °C

Reported melting point for CCC(=O)Nc1c2c(nn1C)N(c1c(C)cc(C)cc1C)CCC2 [Compound 7-3] was 226 to 228 °C

Reported melting point for Cc1cc(C)c(N2CCCc3c2[nH]n(C)c3=O)c(Cl)c1 [Compound 1-15] was 103 to 109 °C

====

Structures can show the parent of a compound that is named as a salt.
reported-endpoint: melting point

Reported melting point for CCCN(CCC)c1c2c(nn1C)N(c1c(C)cc(C)cc1C)CCC2 [Compound 5-35] was 88.9 to 91.5 °C

Reported melting point for Cc1cc(C)c(N2CCCc3c2nn(C)c3Br)c(C)c1 [Compound 1-3] was 94.6 to 97.9 °C

Reported melting point for Cn1[nH]c2c(c1=O)CCCN2c1ccc(Cl)cc1Cl [Compound 1-16] was 98 to 100.5 °C

Reported melting point for Cc1cc(C)c(N2CCCc3c2nn(C)c3CN2CCc3ccccc3C2)c(C)c1 (as salt: hydrochloride) [Compound 7-5] was 236.4 to 241 °C

Reported melting point for COc1ccc(N2CCCc3c2nn(C)c3Br)c(C)c1 [Compound 1-7] was 101.7 to 104.1 °C

Reported melting point for Cc1cc(C)c(N2CCCc3c2nn(C)c3Br)c(Cl)c1 [Compound 1-1] was 106 to 107 °C

Reported melting point for Cn1nc2c(c1Br)CCCN2c1ccc(Cl)cc1 [Compound 1-8] was 113.8 to 114.9 °C

Reported melting point for CCc1c2c(nn1C)N(c1c(C)cc(C)cc1C)CCC2 [Compound 4-5] was 79.7 to 81.4 °C

====

reported-endpoint: melting point

Reported melting point for Cn1[nH]c2c(c1=O)CCCN2c1ccc(Cl)cc1 was 219.5 to 221.6 °C

Reported melting point for CCCC(O)(CCC)c1c2c(nn1C)N(c1c(C)cc(C)cc1C)CCCC2 was 87 to 91.1 °C

Reported melting point for Cn1nc2c(c1Br)CCCN2c1c(Cl)cc(Cl)cc1Cl was 100 to 101 °C

Reported melting point for Cc1cc(C)c(N2C(=O)CCc3c2nn(C)c3Br)c(C)c1 was 256.8 to 258 °C

Reported melting point for Cc1cc(C)c(N2CCCc3c2nn(C)c3C(C)(C)O)c(C)c1 was 158.9 to 161.6 °C

====

reported-endpoint: melting point

Reported melting point for Cc1cc(C)c(N2CCCc3cn(C)nc32)c(Cl)c1 was 97 to 98 °C

Reported melting point for CC/C=C(\CCC)c1c2c(nn1C)N(c1c(C)cc(C)cc1C)CCC2 was 101.6 to 102.6 °C

Reported melting point for Cc1cc(C)c(N2CCOc3cn(C)nc32)c(C)c1 was 103.6 to 104.8 °C

Reported melting point for C=Cc1c2c(nn1C)N(c1c(C)cc(C)cc1C)CCC2 was 64.4 to 67.6 °C

Reported melting point for Cc1cc(C)c(N2CCCc3c2nn(C)c3N)c(Cl)c1 was 234 to 236 °C

Reported melting point for Cc1cc(C)c(N2CCCc3c2nn(C)c3C(O)c2ccco2)c(C)c1 (centres unmarked) was 163.1 to 174.4 °C

Reported melting point for CO/N=C(\C)c1c2c(nn1C)N(c1c(C)cc(C)cc1C)CCC2 was 104.2 to 106.4 °C

Reported melting point for Cc1cc(C)c(N2CCCc3c2nn(C)c3Cl)c(C)c1 was 83 to 86 °C

Reported melting point for Cc1cc(C)c(N2CCCc3c2nn(C)c3C2(O)CCOCC2)c(C)c1 was 193 to 195.1 °C

Reported melting point for Cn1nc2c(c1-c1ccncc1)CCCN2c1ccc(Cl)cc1Cl was 123.5 to 125.5 °C

Reported melting point for Cn1nc2c(c1Cl)CCCN2c1ccc(Cl)cc1 was 96.5 to 97.5 °C

Reported melting point for Cc1cc(C)c(N2CCCc3c2nn(C)c3C(=O)O)c(Cl)c1 was 247.8 to 248.3 °C

Reported melting point for CCCC(O)(c1cccs1)c1c2c(nn1C)N(c1c(C)cc(C)cc1C)CCC2 (centres unmarked) was 175.9 to 178.4 °C

Reported melting point for COCC(=O)Nc1c2c(nn1C)N(c1c(C)cc(C)cc1C)CCC2 was 133.8 to 135 °C

Reported melting point for CC(O)c1c2c(nn1C)N(c1ccc(Cl)cc1Cl)CCC2 (centres unmarked) was 56.7 to 64 °C

Reported melting point for Cc1cc(C)c(N2CCCc3c2nn(C)c3NC(=O)OC(C)(C)C)c(Cl)c1 was 171.4 to 175.7 °C

Reported melting point for CC/C=C(\CCC)c1c2c(nn1C)N(c1c(C)cc(C)cc1C)CCCC2 was 101.9 to 103.9 °C

Reported melting point for CCOC(=O)Nc1c2c(nn1C)N(c1c(C)cc(C)cc1Cl)CCC2 was 204 to 207.8 °C

Reported melting point for CCCC(CCC)c1c2c(nn1C)N(c1c(C)cc(C)cc1C)CCC2 was 91.5 to 92 °C

Reported melting point for CCCN(CCCC#N)c1c2c(nn1C)N(c1c(C)cc(C)cc1C)CCC2 was 108.3 to 111 °C

Reported melting point for Cc1cc(C)c(N2CCCc3c2nn(C)c3C=O)c(C)c1 was 120.5 to 123.5 °C

Reported melting point for Cc1cc(C)c(N2CCCc3c2nn(C)c3C(=O)O)c(C)c1 was 228.6 to 233.9 °C

Reported melting point for Cc1c2c(nn1C)N(c1ccc(Cl)cc1Cl)CCC2 was 66.6 to 76.6 °C

Reported melting point for CCCC(O)(CCC)c1c2c(nn1C)N(c1c(C)cc(C)cc1C)CCC2 was 126 to 127.9 °C

Reported melting point for CC/C=C(\CCC)c1c2c(nn1C)N(c1c(C)cc(C)cc1Cl)CCC2 was 86.7 to 88.2 °C

Reported melting point for CCCC(COC)Nc1c2c(nn1C)N(c1c(C)cc(C)cc1C)CCC2 (centres unmarked) was 100.1 to 104.4 °C

Reported melting point for Cn1nc2c(c1Cl)CCCN2c1ccc(Cl)cc1Cl was 94.5 to 95.5 °C

Reported melting point for COCCC(O)(COC)c1c2c(nn1C)N(c1c(C)cc(C)cc1C)CCC2 (centres unmarked) was 107.9 to 110.9 °C

Reported melting point for CO/N=C/c1c2c(nn1C)N(c1c(C)cc(C)cc1C)CCC2 was 89 to 90.1 °C

Reported melting point for CCC(O)c1c2c(nn1C)N(c1c(C)cc(C)cc1C)CCC2 (centres unmarked) was 179.4 to 180.9 °C

Reported melting point for Cn1nc2c(c1N)CCCN2c1ccc(Cl)cc1Cl was 176.9 to 178.9 °C

Reported melting point for CCCN(CCC)c1c2c(nn1C)N(c1c(C)cc(C)cc1Cl)CCC2 was 90 to 91 °C

Reported melting point for CCCC(O)(c1nccs1)c1c2c(nn1C)N(c1c(C)cc(C)cc1C)CCC2 (centres unmarked) was 160.1 to 165.6 °C

Reported melting point for Cc1cc(C)c(N2CCCc3c2nn(C)c3N)c(C)c1 was 208.8 to 210.9 °C

Reported melting point for CCCC(O)(CCC)c1c2c(nn1C)N(c1c(C)cc(C)cc1Cl)CCC2 was 129 to 130 °C

Reported melting point for CCCC(c1cccs1)c1c2c(nn1C)N(c1c(C)cc(C)cc1C)CCC2 (centres unmarked) was 87.6 to 90.3 °C

Reported melting point for CCC(COC)Nc1c2c(nn1C)N(c1c(C)cc(C)cc1C)CCC2 (centres unmarked) was 96.5 to 102.5 °C

Reported melting point for CSc1c2c(nn1C)N(c1c(C)cc(C)cc1C)CCC2 was 90.3 to 91.7 °C
